Molecular target: megalin (Oryctolagus cuniculus)
Sequence (Z9GY10I8Y6 26-4660 limits assumed): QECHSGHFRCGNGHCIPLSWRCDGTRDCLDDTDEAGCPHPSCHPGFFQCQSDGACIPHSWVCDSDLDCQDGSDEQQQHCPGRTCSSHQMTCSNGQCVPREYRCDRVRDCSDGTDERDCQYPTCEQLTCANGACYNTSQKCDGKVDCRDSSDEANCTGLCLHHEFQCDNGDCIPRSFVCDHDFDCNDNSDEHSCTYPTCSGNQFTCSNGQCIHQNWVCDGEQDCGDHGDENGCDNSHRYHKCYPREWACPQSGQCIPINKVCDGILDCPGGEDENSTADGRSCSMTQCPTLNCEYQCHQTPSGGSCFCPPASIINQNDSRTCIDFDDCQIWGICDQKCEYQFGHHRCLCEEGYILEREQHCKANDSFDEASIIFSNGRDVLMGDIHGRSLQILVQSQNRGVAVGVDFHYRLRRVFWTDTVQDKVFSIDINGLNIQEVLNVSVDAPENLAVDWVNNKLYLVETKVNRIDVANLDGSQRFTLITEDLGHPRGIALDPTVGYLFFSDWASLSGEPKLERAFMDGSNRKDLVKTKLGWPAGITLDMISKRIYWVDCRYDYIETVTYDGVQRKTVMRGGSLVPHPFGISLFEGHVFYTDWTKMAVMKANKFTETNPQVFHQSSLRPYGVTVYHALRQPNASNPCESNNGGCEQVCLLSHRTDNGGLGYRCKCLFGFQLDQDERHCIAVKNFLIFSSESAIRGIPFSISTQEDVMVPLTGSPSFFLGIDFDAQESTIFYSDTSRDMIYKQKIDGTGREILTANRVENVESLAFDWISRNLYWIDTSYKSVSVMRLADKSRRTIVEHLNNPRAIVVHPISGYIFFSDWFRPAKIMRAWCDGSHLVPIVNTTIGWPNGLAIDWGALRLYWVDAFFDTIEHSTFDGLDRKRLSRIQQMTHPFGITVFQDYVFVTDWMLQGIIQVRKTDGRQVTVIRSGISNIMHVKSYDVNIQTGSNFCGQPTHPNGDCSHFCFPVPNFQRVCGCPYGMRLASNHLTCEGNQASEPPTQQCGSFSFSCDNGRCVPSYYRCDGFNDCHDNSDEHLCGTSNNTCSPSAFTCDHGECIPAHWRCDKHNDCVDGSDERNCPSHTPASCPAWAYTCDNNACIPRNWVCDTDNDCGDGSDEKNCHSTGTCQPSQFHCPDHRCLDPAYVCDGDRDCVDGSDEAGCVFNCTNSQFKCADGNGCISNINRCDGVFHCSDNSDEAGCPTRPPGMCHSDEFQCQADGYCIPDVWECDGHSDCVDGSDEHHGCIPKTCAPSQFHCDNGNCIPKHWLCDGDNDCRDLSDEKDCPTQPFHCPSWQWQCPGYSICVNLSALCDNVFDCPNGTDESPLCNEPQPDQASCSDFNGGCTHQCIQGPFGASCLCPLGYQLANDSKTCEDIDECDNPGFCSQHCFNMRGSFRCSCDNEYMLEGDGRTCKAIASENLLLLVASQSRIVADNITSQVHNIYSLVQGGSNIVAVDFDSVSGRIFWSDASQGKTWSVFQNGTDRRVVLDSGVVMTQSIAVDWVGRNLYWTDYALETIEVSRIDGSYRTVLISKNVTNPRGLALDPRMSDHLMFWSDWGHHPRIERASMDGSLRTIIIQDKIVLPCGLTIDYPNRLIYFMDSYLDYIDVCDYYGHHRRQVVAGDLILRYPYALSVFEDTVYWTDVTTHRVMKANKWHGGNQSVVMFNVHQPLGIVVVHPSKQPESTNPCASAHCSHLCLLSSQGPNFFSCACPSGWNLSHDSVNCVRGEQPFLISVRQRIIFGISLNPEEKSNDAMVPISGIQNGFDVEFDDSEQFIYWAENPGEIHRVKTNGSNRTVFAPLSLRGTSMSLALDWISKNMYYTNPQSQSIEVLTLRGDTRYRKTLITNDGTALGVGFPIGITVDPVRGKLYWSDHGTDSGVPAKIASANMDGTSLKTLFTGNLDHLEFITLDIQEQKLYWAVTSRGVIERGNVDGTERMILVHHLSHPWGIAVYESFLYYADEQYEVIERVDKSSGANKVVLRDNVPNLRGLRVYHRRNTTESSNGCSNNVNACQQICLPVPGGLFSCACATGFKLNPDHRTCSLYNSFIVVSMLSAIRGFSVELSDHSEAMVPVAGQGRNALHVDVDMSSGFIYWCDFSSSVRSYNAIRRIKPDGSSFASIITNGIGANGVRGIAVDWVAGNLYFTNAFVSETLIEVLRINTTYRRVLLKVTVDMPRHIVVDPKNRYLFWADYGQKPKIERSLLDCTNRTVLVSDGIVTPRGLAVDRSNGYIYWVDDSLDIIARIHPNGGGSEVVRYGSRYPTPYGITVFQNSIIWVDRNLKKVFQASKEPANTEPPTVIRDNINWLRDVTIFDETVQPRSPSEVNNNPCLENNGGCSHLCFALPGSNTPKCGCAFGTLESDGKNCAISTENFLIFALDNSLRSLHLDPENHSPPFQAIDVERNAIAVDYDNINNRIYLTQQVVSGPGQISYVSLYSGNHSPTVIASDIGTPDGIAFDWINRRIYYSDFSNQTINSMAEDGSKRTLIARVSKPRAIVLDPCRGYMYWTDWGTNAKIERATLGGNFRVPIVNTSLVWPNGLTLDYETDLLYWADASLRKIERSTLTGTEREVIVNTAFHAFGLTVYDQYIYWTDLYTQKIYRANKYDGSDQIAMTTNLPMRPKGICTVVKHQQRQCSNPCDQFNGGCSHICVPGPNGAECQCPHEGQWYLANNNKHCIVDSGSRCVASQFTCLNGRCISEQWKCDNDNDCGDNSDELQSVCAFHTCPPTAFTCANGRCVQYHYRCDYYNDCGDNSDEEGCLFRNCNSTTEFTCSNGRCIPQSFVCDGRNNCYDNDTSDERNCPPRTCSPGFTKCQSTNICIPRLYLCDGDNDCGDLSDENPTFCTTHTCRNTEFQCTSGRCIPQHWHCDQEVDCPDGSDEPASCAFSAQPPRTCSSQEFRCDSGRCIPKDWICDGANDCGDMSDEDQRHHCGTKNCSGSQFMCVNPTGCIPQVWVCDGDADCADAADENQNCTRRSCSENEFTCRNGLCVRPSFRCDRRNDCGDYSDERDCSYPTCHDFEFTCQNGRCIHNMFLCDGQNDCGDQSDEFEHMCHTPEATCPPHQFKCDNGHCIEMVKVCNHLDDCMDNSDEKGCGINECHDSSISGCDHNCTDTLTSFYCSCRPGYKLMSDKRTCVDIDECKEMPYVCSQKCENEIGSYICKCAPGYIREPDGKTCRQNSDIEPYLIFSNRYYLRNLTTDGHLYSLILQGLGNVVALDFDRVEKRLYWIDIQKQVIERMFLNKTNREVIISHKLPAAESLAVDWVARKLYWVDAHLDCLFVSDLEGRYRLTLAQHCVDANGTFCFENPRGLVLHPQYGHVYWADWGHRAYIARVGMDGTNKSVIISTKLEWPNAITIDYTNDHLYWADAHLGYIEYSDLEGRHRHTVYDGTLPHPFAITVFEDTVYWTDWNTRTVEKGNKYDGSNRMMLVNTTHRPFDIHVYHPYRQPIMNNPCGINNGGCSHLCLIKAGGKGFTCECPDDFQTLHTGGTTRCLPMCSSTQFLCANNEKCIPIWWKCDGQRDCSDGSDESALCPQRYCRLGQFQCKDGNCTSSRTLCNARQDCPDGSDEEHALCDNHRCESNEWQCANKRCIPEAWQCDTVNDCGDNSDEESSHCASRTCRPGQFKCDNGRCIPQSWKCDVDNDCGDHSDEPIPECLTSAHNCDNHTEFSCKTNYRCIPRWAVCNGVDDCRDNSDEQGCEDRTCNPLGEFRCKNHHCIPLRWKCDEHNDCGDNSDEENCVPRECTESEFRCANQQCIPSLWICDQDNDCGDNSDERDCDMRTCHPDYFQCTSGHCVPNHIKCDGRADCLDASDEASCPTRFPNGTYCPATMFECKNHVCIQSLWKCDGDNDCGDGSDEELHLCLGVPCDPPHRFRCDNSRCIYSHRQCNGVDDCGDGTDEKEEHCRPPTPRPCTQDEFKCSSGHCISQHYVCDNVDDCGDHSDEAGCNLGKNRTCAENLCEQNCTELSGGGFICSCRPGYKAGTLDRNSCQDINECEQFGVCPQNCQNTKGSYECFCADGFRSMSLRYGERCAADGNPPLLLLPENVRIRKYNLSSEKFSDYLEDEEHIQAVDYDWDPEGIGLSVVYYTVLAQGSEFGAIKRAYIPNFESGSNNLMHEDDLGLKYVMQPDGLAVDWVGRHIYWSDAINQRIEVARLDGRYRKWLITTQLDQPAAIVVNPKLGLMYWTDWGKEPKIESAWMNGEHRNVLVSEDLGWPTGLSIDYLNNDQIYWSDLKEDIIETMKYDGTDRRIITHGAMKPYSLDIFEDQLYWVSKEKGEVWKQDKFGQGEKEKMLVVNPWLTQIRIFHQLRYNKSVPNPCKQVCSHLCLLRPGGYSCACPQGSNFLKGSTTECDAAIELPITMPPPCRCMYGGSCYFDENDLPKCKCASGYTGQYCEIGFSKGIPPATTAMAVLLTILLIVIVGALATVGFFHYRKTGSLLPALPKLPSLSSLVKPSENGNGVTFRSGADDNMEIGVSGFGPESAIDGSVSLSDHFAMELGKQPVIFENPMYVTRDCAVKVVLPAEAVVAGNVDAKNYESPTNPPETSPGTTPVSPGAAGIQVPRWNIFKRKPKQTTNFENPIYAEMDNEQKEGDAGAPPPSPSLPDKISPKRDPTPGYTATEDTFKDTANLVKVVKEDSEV
RECORDED ENDPOINT: IC50

Problem: Need IC50 of NCc1ccc(CN)cc1 [RC043, p-xylylene diamine] , thanks.
Result: ~100 µM
